Each recorded value in this set is attributed to ChEMBL document CHEMBL4138220.

# Activity values compiled below
assay: Induction of basal contraction tone in isolated Wistar rat aorta rings at 10 uM after 10 mins in presence K60 solution (reference value: 0.2 +/- 0.2%); format: tissue-based
Property: Activity

[[record]]
smiles_code = "C=C(c1ccc(OC(F)F)c(N)c1)c1cc(OC)c(OC)c(OC)c1"
property = "Activity"
measured_result = "2.2%"

[[record]]
smiles_code = "COc1ccc(C(=C(F)F)c2cc(OC)c(OC)c(OC)c2)cc1N"
property = "Activity"
measured_result = "2.1%"

[[record]]
smiles_code = "COc1ccc(/C=C\\c2cc(OC)c(OC)c(OC)c2)cc1O"
property = "Activity"
measured_result = "0.7%"

[[record]]
smiles_code = "C=C(c1ccc(OC)c(N)c1)c1cc(OC)c(OC)c(OC)c1"
property = "Activity"
measured_result = "1.6%"


====

assay: Metabolic stability in human plasma at 5 uM after 120 mins by UPLC-MS/MS analysis; format: ADME, cell-free; conditions: read-out: Stability
Property: remaining at 2 h, 5 µM; scope: individual compounds
Property: remaining at 2 h, 5 µM (%)

[[record]]
smiles_code = "COc1ccc(C(=C(F)F)c2cc(OC)c(OC)c(OC)c2)cc1O"
unit_name = "%"
measured_result = 100

[[record]]
smiles_code = "C=C(c1ccc(OC)c(N)c1)c1cc(OC)c(OC)c(OC)c1"
unit_name = "%"
measured_result = 94

[[record]]
smiles_code = "COc1ccc(C(=C(F)F)c2cc(OC)c(OC)c(OC)c2)cc1N"
unit_name = "%"
measured_result = 100

[[record]]
smiles_code = "C=C(c1ccc(OC(F)F)c(N)c1)c1cc(OC)c(OC)c(OC)c1"
unit_name = "%"
measured_result = 100


====

experiment: Increase in PGF2alpha-induced contractile response in isolated Wistar rat aorta rings at 10 uM after 10 mins; assay type: tissue-based
Property: pD2

[[record]]
smiles_code = "C=C(c1ccc(OC(F)F)c(N)c1)c1cc(OC)c(OC)c(OC)c1"
measured_result = 5.87

[[record]]
smiles_code = "COc1ccc(/C=C\\c2cc(OC)c(OC)c(OC)c2)cc1O"
measured_result = 5.73

[[record]]
smiles_code = "C=C(c1ccc(OC)c(N)c1)c1cc(OC)c(OC)c(OC)c1"
measured_result = 5.79

[[record]]
smiles_code = "COc1ccc(C(=C(F)F)c2cc(OC)c(OC)c(OC)c2)cc1N"
measured_result = 5.94


====

assay: Metabolic stability in human liver microsomes at 5 uM after 120 mins in absence of NADPH by UPLC-MS/MS analysis; assay type: ADME, microsome; conditions: read-out: Stability
Entries annotated with measured remaining at 2 h, 5 µM
Property: remaining at 2 h, 5 µM (%)

[[record]]
smiles_code = "C=C(c1ccc(OC)c(N)c1)c1cc(OC)c(OC)c(OC)c1"
relation_operator = "="
measured_result = 6

[[record]]
smiles_code = "COc1ccc(C(=C(F)F)c2cc(OC)c(OC)c(OC)c2)cc1O"
relation_operator = "="
measured_result = 20

[[record]]
smiles_code = "C=C(c1ccc(OC(F)F)c(N)c1)c1cc(OC)c(OC)c(OC)c1"
relation_operator = "="
measured_result = 9

[[record]]
smiles_code = "COc1ccc(C(=C(F)F)c2cc(OC)c(OC)c(OC)c2)cc1N"
relation_operator = "<"
measured_result = 5

